From: ChEMBL document CHEMBL3352534

- PROCEDURE TEXT: Dissociation constant, pKa of the compound
- Type: physicochemical
MEASURED PROPERTY: pKa

Which pKa value belongs to "CCOc1cc(NC(=O)C2(NC(=O)c3ccc4c(C5CCCC5)c(-c5ncc(Cl)cn5)n(C)c4c3)CCC2)ccc1/C=C/C(=O)OCCN1CCCC1" ?
7.7

Fill in the blank: the reported pKa of "CCOc1cc(NC(=O)C2(NC(=O)c3ccc4c(C5CCCC5)c(-c5ncc(Cl)cn5)n(C)c4c3)CCC2)ccc1/C=C/C(=O)OCCN(C)C" is ____.
7.7

Consider the compound shown here: "CCOc1cc(NC(=O)C2(NC(=O)c3ccc4c(C5CCCC5)c(-c5ncc(Cl)cn5)n(C)c4c3)CCC2)ccc1/C=C/C(=O)OCC(=O)N1CCN(C)CC1" What is its recorded pKa?
6.6

Can you look up the measured pKa of "CCOc1cc(NC(=O)C2(NC(=O)c3ccc4c(C5CCCC5)c(-c5ncc(Cl)cn5)n(C)c4c3)CCC2)ccc1/C=C/C(=O)OCCN1CCOCC1" for me?
5.7

Find the recorded pKa belonging to "CCOc1cc(NC(=O)C2(NC(=O)c3ccc4c(C5CCCC5)c(-c5ncc(Cl)cn5)n(C)c4c3)CCC2)ccc1/C=C/C(=O)OCCN1CCN(C)CC1" and report it.
7.7

* * *

- System: Plasma
- PROCEDURE TEXT: Prodrug conversion in rat plasma assessed as half life
- Assay type: ADME, cell-free
MEASURED PROPERTY: t1/2 (h)

Some entries whose results are on file:
Consider the compound shown here: "CCOc1cc(NC(=O)C2(NC(=O)c3ccc4c(C5CCCC5)c(-c5ncc(Cl)cn5)n(C)c4c3)CCC2)ccc1/C=C/C(=O)OCC(=O)N(C)C" What is its recorded t1/2?
1.43

// t1/2 lookup, key: "CCOc1cc(NC(=O)C2(NC(=O)c3ccc4c(C5CCCC5)c(-c5ncc(Cl)cn5)n(C)c4c3)CCC2)ccc1/C=C/C(=O)OCc1ccccc1"
2.23

A. CCCOC(=O)/C=C/c1ccc(NC(=O)C2(NC(=O)c3ccc4c(C5CCCC5)c(-c5ncc(Cl)cn5)n(C)c4c3)CCC2)cc1OCC
B. CCOc1cc(NC(=O)C2(NC(=O)c3ccc4c(C5CCCC5)c(-c5ncc(Cl)cn5)n(C)c4c3)CCC2)ccc1/C=C/C(=O)OCCN1CCOCC1
Could you check which of A and B has a smaller value for t1/2? Your answer should be the label of the entry you select.
B

* * *

- System: Intestine
- PROCEDURE TEXT: Prodrug conversion in rat intestinal microsomes assessed as half life
MEASURED PROPERTY: t1/2 (h)

I am curious: what t1/2 value has been reported for "CCOc1cc(NC(=O)C2(NC(=O)c3ccc4c(C5CCCC5)c(-c5ncc(Cl)cn5)n(C)c4c3)CCC2)ccc1/C=C/C(=O)OCCN(C)C" ?
1.47

a. CCOc1cc(NC(=O)C2(NC(=O)c3ccc4c(C5CCCC5)c(-c5ncc(Cl)cn5)n(C)c4c3)CCC2)ccc1/C=C/C(=O)OC
b. CCOc1cc(NC(=O)C2(NC(=O)c3ccc4c(C5CCCC5)c(-c5ncc(Cl)cn5)n(C)c4c3)CCC2)ccc1/C=C/C(=O)OCC(=O)N1CCOCC1
Given a and b , report the one with the higher recorded t1/2. Response format: the label of the selected entry.
a

* * *

- PROCEDURE TEXT: Prodrug solubility in capmul
- Format: ADME
Measured solubility accompanies every entry in the list below.

# get_value(readout='solubility', item= "CCOc1cc(NC(=O)C2(NC(=O)c3ccc4c(C5CCCC5)c(-c5ncc(Cl)cn5)n(C)c4c3)CCC2)ccc1/C=C/C(=O)OCC(=O)NC" )
< 200 mg/mL

***
Query (compound): "CCOc1cc(NC(=O)C2(NC(=O)c3ccc4c(C5CCCC5)c(-c5ncc(Cl)cn5)n(C)c4c3)CCC2)ccc1/C=C/C(=O)OCCN1CCCC1" ; field requested: solubility
< 60 mg/mL

What value of measured solubility is listed for "CCOc1cc(NC(=O)C2(NC(=O)c3ccc4c(C5CCCC5)c(-c5ncc(Cl)cn5)n(C)c4c3)CCC2)ccc1/C=C/C(=O)OCC(=O)N(C)C" ?
> 100 mg/mL

Which solubility is reported for this compound? "CCOc1cc(NC(=O)C2(NC(=O)c3ccc4c(C5CCCC5)c(-c5ncc(Cl)cn5)n(C)c4c3)CCC2)ccc1/C=C/C(=O)OCC(=O)N1CCCC1"
< 200 mg/mL

Which solubility is reported for this compound? "CCOc1cc(NC(=O)C2(NC(=O)c3ccc4c(C5CCCC5)c(-c5ncc(Cl)cn5)n(C)c4c3)CCC2)ccc1/C=C/C(=O)OCC(=O)N1CCOCC1"
< 15 mg/mL

Give its solubility value. Item: "CCOc1cc(NC(=O)C2(NC(=O)c3ccc4c(C5CCCC5)c(-c5ncc(Cl)cn5)n(C)c4c3)CCC2)ccc1/C=C/C(=O)OCCNN1CCCC1"
< 100 mg/mL

* * *

- Tested on: Rattus norvegicus
- PROCEDURE TEXT: AUC in rat plasma assessed as (E)-3-(4-(1-(2-(5-chloropyrimidin-2-yl)-3-cyclopentyl-1-methyl-1H-indole-6-carboxamido)cyclobutanecarboxamido)-2-ethoxyphenyl)acrylic acid at 10 mg/kg, po using 10.6% PEG400, 5.4% Cremophor EL, 2.6% Labrasol, 1.4% Capmul MCM in water (80%) vehicle
- Format: ADME, organism-based
- Parameters: dose 10 mg/kg, route oral
- EXPERIMENTAL CONTEXT: in vivo
MEASURED PROPERTY: AUC (µM·h)

P. CCOc1cc(NC(=O)C2(NC(=O)c3ccc4c(C5CCCC5)c(-c5ncc(Cl)cn5)n(C)c4c3)CCC2)ccc1/C=C/C(=O)OCC(=O)N1CCN(C)CC1
Q. CCCCCCOC(=O)/C=C/c1ccc(NC(=O)C2(NC(=O)c3ccc4c(C5CCCC5)c(-c5ncc(Cl)cn5)n(C)c4c3)CCC2)cc1OCC
R. CCOc1cc(NC(=O)C2(NC(=O)c3ccc4c(C5CCCC5)c(-c5ncc(Cl)cn5)n(C)c4c3)CCC2)ccc1/C=C/C(=O)OCCN1CCCC1
Please arrange the 3 compounds above from largest to smallest AUC value. // ordering of labels required in reply
R, Q, P
(R: 6.5 µM·h, Q: 3.2 µM·h, P: 1.5 µM·h)

* * *

- Tested on: Rattus norvegicus
- PROCEDURE TEXT: Cmax in rat plasma assessed as (E)-3-(4-(1-(2-(5-chloropyrimidin-2-yl)-3-cyclopentyl-1-methyl-1H-indole-6-carboxamido)cyclobutanecarboxamido)-2-ethoxyphenyl)acrylic acid at 10 mg/kg, po using 10.6% PEG400, 5.4% Cremophor EL, 2.6% Labrasol, 1.4% Capmul MCM in water (80%) vehicle
- Type: ADME, organism-based
- Design: dose 10 mg/kg, route oral
- EXPERIMENTAL CONTEXT: in vivo
MEASURED PROPERTY: Cmax (µM)

// worked examples, Cmax included
// query Cmax value for entry "CCOc1cc(NC(=O)C2(NC(=O)c3ccc4c(C5CCCC5)c(-c5ncc(Cl)cn5)n(C)c4c3)CCC2)ccc1/C=C/C(=O)OCCN1CCOCC1"
7.2

Entry under review: "CCOc1cc(NC(=O)C2(NC(=O)c3ccc4c(C5CCCC5)c(-c5ncc(Cl)cn5)n(C)c4c3)CCC2)ccc1/C=C/C(=O)OCCN(C)C" . Reported Cmax?
1.6

For the compound shown here, "CCOc1cc(NC(=O)C2(NC(=O)c3ccc4c(C5CCCC5)c(-c5ncc(Cl)cn5)n(C)c4c3)CCC2)ccc1/C=C/C(=O)OCC(=O)N1CCOCC1" , give the reported Cmax.
4

I. CCOc1cc(NC(=O)C2(NC(=O)c3ccc4c(C5CCCC5)c(-c5ncc(Cl)cn5)n(C)c4c3)CCC2)ccc1/C=C/C(=O)OCC(N)=O
II. CCOc1cc(NC(=O)C2(NC(=O)c3ccc4c(C5CCCC5)c(-c5ncc(Cl)cn5)n(C)c4c3)CCC2)ccc1/C=C/C(=O)OCC(=O)N(C)C
III. CCOc1cc(NC(=O)C2(NC(=O)c3ccc4c(C5CCCC5)c(-c5ncc(Cl)cn5)n(C)c4c3)CCC2)ccc1/C=C/C(=O)OCOC(=O)C(C)(C)C
IV. CCOc1cc(NC(=O)C2(NC(=O)c3ccc4c(C5CCCC5)c(-c5ncc(Cl)cn5)n(C)c4c3)CCC2)ccc1/C=C/C(=O)OCCN1CCCC1
Rank the items in ascending order with respect to Cmax. # list labels per requested ordering
IV, III, I, II

I. CCOc1cc(NC(=O)C2(NC(=O)c3ccc4c(C5CCCC5)c(-c5ncc(Cl)cn5)n(C)c4c3)CCC2)ccc1/C=C/C(=O)OC
II. CCOc1cc(NC(=O)C2(NC(=O)c3ccc4c(C5CCCC5)c(-c5ncc(Cl)cn5)n(C)c4c3)CCC2)ccc1/C=C/C(=O)O
Just tell me: smaller Cmax value, I or II ? Use the label to indicate which entry you chose.
II

1. CCOc1cc(NC(=O)C2(NC(=O)c3ccc4c(C5CCCC5)c(-c5ncc(Cl)cn5)n(C)c4c3)CCC2)ccc1/C=C/C(=O)OCCNN1CCCC1
2. CCCCCCOC(=O)/C=C/c1ccc(NC(=O)C2(NC(=O)c3ccc4c(C5CCCC5)c(-c5ncc(Cl)cn5)n(C)c4c3)CCC2)cc1OCC
Could you determine which record has the numerically smaller Cmax? Candidates: 1 and 2 Kindly state the label of the option you pick.
2

1. CCOc1cc(NC(=O)C2(NC(=O)c3ccc4c(C5CCCC5)c(-c5ncc(Cl)cn5)n(C)c4c3)CCC2)ccc1/C=C/C(=O)OCCOCCOC
2. CCOc1cc(NC(=O)C2(NC(=O)c3ccc4c(C5CCCC5)c(-c5ncc(Cl)cn5)n(C)c4c3)CCC2)ccc1/C=C/C(=O)OCC(=O)N1CCN(C)CC1
3. CCOc1cc(NC(=O)C2(NC(=O)c3ccc4c(C5CCCC5)c(-c5ncc(Cl)cn5)n(C)c4c3)CCC2)ccc1/C=C/C(=O)OCCN1CCN(C)CC1
Place the items in sequence of falling Cmax. Present the labels in the sequence the task asks for.
1, 3, 2
